System: Vero E6 infected with SARS-CoV-2
Assay: morphology score (similarity to uninfected cells); higher = more like uninfected cells
Settings: 24 h
Property Name: morphology score
Numbers only.

Worked examples follow.
INPUT: Please give the measured morphology score for this compound: COc1cc(C(=O)NCCCCCC(=O)O)cc(OC)c1OC [capobenic-acid] (10 µM)
OUTPUT: 0.0878

INPUT: Try this compound too: CCOC(=O)C1=C(C)NC(C)=C(C(=O)OC)[C@@H]1c1cccc([N+](=O)[O-])c1 (racemic) [nitrendipine] (10 µM)
OUTPUT: -0.062

INPUT: Try this compound too: CCOc1cc(C(=O)Nc2ccc(Cl)c(-c3nc4ccccc4[nH]3)c2)cc(OCC)c1OCC (10 µM)
OUTPUT: -0.0242

INPUT: Try this compound too: CCCCCCCCCC(=O)OCCN1CCN(CCCN2c3ccccc3Sc3ccc(C(F)(F)F)cc32)CC1 [fluphenazine-decanoate] (10 µM)
OUTPUT: -0.147

INPUT: Try this compound too: COc1c(OCCCN2CCOCC2)ccc2c1N=C(NC(=O)c1cnc(N)nc1)N1CCN=C21 [copanlisib] (0.833333 µM)
OUTPUT: -0.0397

Hi! Can you tell me morphology score for each of these compounds?
1. CC[C@H](C)n1cc(C)c2c(C(=O)NCc3c(C)cc(C)[nH]c3=O)cc(-c3ccc(N4CCNCC4)nc3)cc21 (10 µM)
2. [O-][n+]1ccccc1[S-].[O-][n+]1ccccc1[S-].[Zn+2] [pyrithione-zinc] (10 µM)
3. C[C@@H]1CCO[C@H]2Cn3cc(C(=O)NCc4ccc(F)cc4F)c(=O)c(O)c3C(=O)N12 [dolutegravir] (10 µM)
4. CC(C)(C)c1ccc(C(=O)CCCN2CCC(OC(c3ccccc3)c3ccccc3)CC2)cc1 [ebastine] (10 µM)

OUTPUT:
-0.212
0.0399
0.0816
0.606

Hi! Can you tell me morphology score for each of these compounds?
1. COc1cc(OC2CCN(C)CC2)ccc1Nc1ncc2c(n1)n(C1CCCC1)c(=O)n2C (0.833333 µM)
2. O=C(NCCO)c1cccc(-c2cc(Nc3ccc(OC(F)(F)F)cc3)ncn2)c1 (10 µM)
3. CCN(CCCc1ccccc1)CCCc1ccccc1 [alverine] (10 µM)
4. COCCOC(=O)C1=C(C)NC(C)=C(C(=O)OC(C)C)C1c1cccc([N+](=O)[O-])c1 (stereo unspecified) [nimodipine] (10 µM)
5. COc1ccc(NC(=O)c2ccc(C(=N)N(C)C)cc2)c(C(=O)Nc2ccc(Cl)cn2)c1 [betrixaban] (10 µM)

OUTPUT:
1. 0.126
2. -0.0129
3. 0.397
4. 0.14
5. 0.0893

Hi! Can you tell me morphology score for each of these compounds?
1. Cc1c(NC(=O)N2CCOCC2)ccc2c1c1ccccc1n2C(C)C (10 µM)
2. O=S(=O)(O)NC1CCCCC1 [cyclamic-acid] (10 µM)

OUTPUT:
[0.121, 0.146]

---

System: Vero E6 infected with SARS-CoV-2
Assay: inhibition of SARS-CoV-2 cytopathic effect; higher = more antiviral protection, active = above 15
Settings: 10000 nM; 48 h
So I've got a bunch of compounds here, and I need their inhibition of SARS-CoV-2 cytopathic effect values.
One number for each entry, in %.

Worked examples follow.
INPUT: Please give the measured inhibition of SARS-CoV-2 cytopathic effect for this compound: COc1ccc2c(c1)C(C(=O)N(Cc1ccc(N(C)C)cc1)c1ccc(C(C)C)cc1)CCC2 (stereo not given)
OUTPUT: -3.29

INPUT: Try this compound too: "COc1ccc(S(=O)(=O)Nc2nc(-c3cccc([N+](=O)[O-])c3)cs2)cc1OC"
OUTPUT: -3.82

INPUT: Try this compound too: "c1cncc(CN2CCC(n3ncc4c(N5CCOCC5)nc(-c5ccc6[nH]ccc6c5)nc43)CC2)c1"
OUTPUT: 17.7

INPUT: Try this compound too: "COc1ccc2[nH]c(C(=O)c3ccccc3)cc2c1"
OUTPUT: 0.07

INPUT: Try this compound too: "Cc1cc(C)c(N(Cc2ccccc2)S(=O)(=O)c2ccc(OCCNC(=O)c3cc4ccccc4o3)cc2)c(C(=O)NO)c1"
OUTPUT: -6.93

INPUT: Try this compound too: "CC(C)(C)c1ccc(-c2nc3c(N4CCN(Cc5ccc6nccnc6c5)CC4)cccc3[nH]2)cc1"
OUTPUT: 4.93

INPUT: Try this compound too: "C/C=C(/C(=C/C)c1ccc(O)cc1)c1ccc(O)cc1"
OUTPUT: 1.6

INPUT: Try this compound too: CC1Nc2ccc(Cl)cc2S(=O)(=O)N1 (stereo not given)
OUTPUT: 2.76

Hi! Can you tell me inhibition of SARS-CoV-2 cytopathic effect for each of these compounds?
1. C=CC(=O)Nc1cccc(Oc2nc(Nc3ccc(N4CCN(C)CC4)cc3OC)ncc2Cl)c1
2. CC(C)(C)OC(=O)N[C@H]1CCCCC/C=C\[C@@H]2C[C@@]2(C(=O)NS(=O)(=O)C2CC2)NC(=O)[C@@H]2C[C@@H](OC(=O)N3Cc4cccc(F)c4C3)CN2C1=O
3. CC(C)Oc1ccc(-c2nc(-c3cccc4c3CC[C@H]4NCCC(=O)O)no2)cc1C#N
4. NC(=O)CN1CCCC1=O
5. O=C(/C=C/c1ccc(O)c(O)c1)c1ccc(O)cc1O

OUTPUT:
1. -11.8
2. -1.76
3. -0.03
4. -0.57
5. 12.1

---

So I've got a bunch of compounds here, and I need their inhibition of SARS-CoV-2 cytopathic effect values.
Test system: Vero E6 infected with SARS-CoV-2
Experiment: inhibition of SARS-CoV-2 cytopathic effect; higher = more antiviral protection, active = above 15
Conditions: 8.33 nM; 48 h

Worked examples follow.
INPUT: Request body: readout inhibition of SARS-CoV-2 cytopathic effect, system Vero E6 infected with SARS-CoV-2, query CC1(C)O[C@@H]2[C@@H](CO[C@@]3(COS(N)(=O)=O)OC(C)(C)O[C@@H]23)O1 [topiramate] . Return the value.
OUTPUT: 1.71% (inactive)

INPUT: Try this compound too: "Cc1csc(-c2nnc(Nc3ccc(Oc4ncccc4-c4ccnc(N)n4)cc3)c3ccccc23)c1"
OUTPUT: -3.23% (inactive)

INPUT: Try this compound too: "O=C1S/C(=C\c2ccc(OCc3cccc(B(O)O)c3)cc2)C(=O)N1Cc1ccc(F)cc1"
OUTPUT: 1.46% (inactive)

Continuing:
INPUT: Request body: readout inhibition of SARS-CoV-2 cytopathic effect, system Vero E6 infected with SARS-CoV-2, query "O=C(Nc1cnn2ccc(N3CCC[C@@H]3c3cc(F)ccc3F)nc12)N1CC[C@H](O)C1" . Return the value.
OUTPUT: 4.14% (inactive)

---

Tested on: Vero E6 infected with SARS-CoV-2
Test: inhibition of SARS-CoV-2 cytopathic effect; higher = more antiviral protection, active = above 15
Conditions: 100 nM; 48 h
Property Name: inhibition of SARS-CoV-2 cytopathic effect (%)
Give bare numbers, in %.

INPUT: Please give the measured inhibition of SARS-CoV-2 cytopathic effect for this molecule: CCCCOc1cc(CC2CNC(=O)N2)ccc1OC (centres undefined)
OUTPUT: -3.01

INPUT: Try this molecule too: C[N+]12CCCCC1CCC(=C(c1cccs1)c1cccs1)C2 (centres undefined)
OUTPUT: 2.71

INPUT: Try this molecule too: "O=C(NO)c1cnc(N2CCN(S(=O)(=O)c3ccc4ccccc4c3)CC2)nc1"
OUTPUT: 2.04

INPUT: Try this molecule too: CC(CN(C)C)C(C)(O)Cc1ccc(Cl)cc1 (centres undefined)
OUTPUT: 1.61

Hi! Can you tell me inhibition of SARS-CoV-2 cytopathic effect for each of these molecules?
1. CN(C)CCCCC(=O)Nc1ccc(NC(=S)NC(=O)c2ccc(C(C)(C)C)cc2)cc1
2. CC(C)(C)c1cc(C(=O)/C(C#N)=N/Nc2cccc(Cl)c2)no1

OUTPUT:
1. -0.72
2. -0.43

---

So I've got a bunch of compounds here, and I need their inhibition of SARS-CoV-2 cytopathic effect values.
Test system: Vero E6 infected with SARS-CoV-2
Assay: inhibition of SARS-CoV-2 cytopathic effect; higher = more antiviral protection, active = above 15
Conditions: 833.33 nM; 48 h
Give bare numbers, in %.

Worked examples follow.
INPUT: Please give the measured inhibition of SARS-CoV-2 cytopathic effect for this compound: "CC(=O)[O-].CC(=O)[O-].N.NC1CCCCC1.[Cl-].[Cl-].[Pt+4]"
OUTPUT: 1.69

INPUT: Try this compound too: "C=CC(C)(C)c1cc(/C=C/C(=O)c2ccc(O)cc2)c(OC)cc1O"
OUTPUT: -9.62

INPUT: Try this compound too: "COc1ccc(-c2cc(=O)c3c(O)cc(O[C@@H]4O[C@H](CO[C@@H]5O[C@@H](C)[C@H](O)[C@@H](O)[C@H]5O)[C@@H](O)[C@H](O)[C@H]4O)cc3o2)cc1O"
OUTPUT: 4.64

Hi! Can you tell me inhibition of SARS-CoV-2 cytopathic effect for each of these compounds?
1. OCCNC1CCCc2c1[nH]c1ccc(-c3ccccc3)cc21 (stereo not drawn)
2. CCN(CCO)CCCC(C)Nc1ccnc2cc(Cl)ccc12 (stereo not drawn) [hydroxychloroquine]
3. c1ccc2c(c1)CCCC2C1=NCCN1 (stereo not drawn) [tetrahydrozoline]
4. C#C[C@]1(O)CC[C@H]2[C@@H]3CCC4=CC(=O)CCC4=C3C=C[C@@]21CC
5. O=C1Nc2ccc(I)cc2C1=Cc1cc(Br)c(O)c(Br)c1

OUTPUT:
1: -2.43; 2: 0; 3: 1.39; 4: 3.58; 5: 2.76
